Listed here: items and their measured inhibition at 1 µM.
tested on: HL-60 cells; experiment: MTT assay in HL-60 cells; format: cell-based, human; conditions: Homo sapiens; 10^-6 M, MTT, HL-60
Could you give me the number in %? Just the number is fine.

Consider the reported inhibition at 1 µM for these molecules:
CCCCCCc1cc2cc(C(C)=O)c(=O)oc2c(C)c1OC(=O)/C=C(C)/C=C/C=C(C)/C=C/C1=C(C)CCCC1(C)C :: 30
CC1=C(/C=C/C(C)=C/C=C/C(C)=C/C(=O)Oc2cc(C(=O)O)c3cc(C(N)=O)c(=O)oc3c2)C(C)(C)CCC1 :: 52.6
CC(=O)c1cc2ccc(OC(=O)/C=C(C)/C=C/C=C(C)/C=C/C3=C(C)CCCC3(C)C)c(C(=O)O)c2oc1=O :: 34
CCOC(=O)c1cc2ccc(OC(=O)/C=C(C)/C=C/C=C(C)/C=C/C3=C(C)CCCC3(C)C)c(C)c2oc1=O :: 48.8
CCc1cc2cc(C(C)=O)c(=O)oc2cc1OC(=O)/C=C(C)/C=C/C=C(C)/C=C/C1=C(C)CCCC1(C)C :: 4.3

Query: Param item = CC(=O)c1cc2c(OC(=O)/C=C(C)/C=C/C=C(C)/C=C/C3=C(C)CCCC3(C)C)c(C(=O)O)ccc2oc1=O ; retrieve measured inhibition at 1 µM.
Response: 54

Query: Param item = CCOC(=O)c1cc2c(OC(=O)/C=C(C)/C=C/C=C(C)/C=C/C3=C(C)CCCC3(C)C)cc(OC(=O)/C=C(C)/C=C/C=C(C)/C=C/C3=C(C)CCCC3(C)C)cc2oc1=O ; retrieve measured inhibition at 1 µM.
Response: 49.9

Query: Param item = CC(=O)c1cc2ccc(OC(=O)/C=C(C)/C=C/C=C(C)/C=C/C3=C(C)CCCC3(C)C)c(OC(=O)/C=C(C)/C=C/C=C(C)/C=C/C3=C(C)CCCC3(C)C)c2oc1=O ; retrieve measured inhibition at 1 µM.
Response: 50.6

###

System: HL-60 cells
Experiment: MTT assay in HL-60 cells
Format: cell-based, human
Settings: Homo sapiens; 10^-7 M, MTT, HL-60
Description: Human cancer cell lines (KB, A2780, MCF-7, HL-60, A549) were used. For a monolayer culture, 0.5 ml of trypsin solution ([…]) was added to the flasks for digestion. […] With a mild agitation the OD values were determined by the MR 700 Elisa at 570 nm (reference wavelength was 450 nm). The ED50 of the compound and tumor cell survival rate [formula] as percent inhibition were calculated. […]
Label 1 when inhibition at 0.1 µM >= 30%; otherwise 0.

These recorded examples may help you get a feel for the data.
CCc1cc2cc(C(C)=O)c(=O)oc2cc1OC(=O)/C=C(C)/C=C/C=C(C)/C=C/C1=C(C)CCCC1(C)C :: 0
CC(=O)c1cc2ccc(OC(=O)/C=C(C)/C=C/C=C(C)/C=C/C3=C(C)CCCC3(C)C)c(OC(=O)/C=C(C)/C=C/C=C(C)/C=C/C3=C(C)CCCC3(C)C)c2oc1=O :: 1
CC(=O)c1cc2c(OC(=O)/C=C(C)/C=C/C=C(C)/C=C/C3=C(C)CCCC3(C)C)c(C(=O)O)ccc2oc1=O :: 1
CC(=O)c1cc2ccc(OC(=O)/C=C(C)/C=C/C=C(C)/C=C/C3=C(C)CCCC3(C)C)c(C(=O)O)c2oc1=O :: 0
CCCCCCc1cc2cc(C(C)=O)c(=O)oc2c(C)c1OC(=O)/C=C(C)/C=C/C=C(C)/C=C/C1=C(C)CCCC1(C)C :: 0
CC1=C(/C=C/C(C)=C/C=C/C(C)=C/C(=O)Oc2cc(C(=O)O)c3cc(C(N)=O)c(=O)oc3c2)C(C)(C)CCC1 :: 1
CCOC(=O)c1cc2ccc(OC(=O)/C=C(C)/C=C/C=C(C)/C=C/C3=C(C)CCCC3(C)C)c(C)c2oc1=O :: 1

Query: Is inhibition at 0.1 µM at least 30%? Consider CCOC(=O)c1cc2c(OC(=O)/C=C(C)/C=C/C=C(C)/C=C/C3=C(C)CCCC3(C)C)cc(OC(=O)/C=C(C)/C=C/C=C(C)/C=C/C3=C(C)CCCC3(C)C)cc2oc1=O
Response: 1
